targetDesc: T1, human MSLN-FL-his protein (human, UniProt Q13421 296-580)
T1 construct: also called human MSLN full-length protein; hMSLN-FL-his; not shown: His tag
T1 sequence (Q13421 other isoform, or with tags, fused parts or gaps): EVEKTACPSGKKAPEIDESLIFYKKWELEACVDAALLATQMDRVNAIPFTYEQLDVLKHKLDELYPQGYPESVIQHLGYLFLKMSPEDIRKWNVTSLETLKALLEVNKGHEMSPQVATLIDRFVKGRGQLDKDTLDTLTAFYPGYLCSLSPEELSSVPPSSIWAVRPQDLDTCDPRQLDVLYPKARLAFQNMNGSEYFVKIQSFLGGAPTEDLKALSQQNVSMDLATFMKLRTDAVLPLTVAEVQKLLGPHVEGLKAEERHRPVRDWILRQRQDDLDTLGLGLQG
assayOverview: ELISA, coated MSLN full-length;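 also: binding of chimeric antibodies to plate-bound antigen, read by TMB colour after acid stop, antibody incubated 2 h at 37 °C, negative control antibody run alongside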
Recorded OD450 at 0.001 nM, one value per entry.
Value expressed in OD450; do not type the unit.

Known results for binders:
1) S009-F2.13.3 (antibody, human IgG1, kappa, V domains shown, Human-murine chimeric antibody, human IgG1/kappa constant regions) VH: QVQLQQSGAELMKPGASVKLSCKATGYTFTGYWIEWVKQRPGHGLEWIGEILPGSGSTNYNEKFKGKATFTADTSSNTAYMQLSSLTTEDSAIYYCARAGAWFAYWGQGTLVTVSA VL: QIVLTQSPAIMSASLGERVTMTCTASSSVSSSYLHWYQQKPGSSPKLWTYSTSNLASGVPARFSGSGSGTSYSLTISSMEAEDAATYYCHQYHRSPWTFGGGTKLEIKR :: 0.08
2) S009-F2.16.10 (antibody, human IgG1, kappa, V domains shown, Human-murine chimeric antibody, human IgG1/kappa constant regions) VH: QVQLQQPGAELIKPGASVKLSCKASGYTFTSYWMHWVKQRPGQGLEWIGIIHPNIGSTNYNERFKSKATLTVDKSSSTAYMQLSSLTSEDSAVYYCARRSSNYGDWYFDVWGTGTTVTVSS VL: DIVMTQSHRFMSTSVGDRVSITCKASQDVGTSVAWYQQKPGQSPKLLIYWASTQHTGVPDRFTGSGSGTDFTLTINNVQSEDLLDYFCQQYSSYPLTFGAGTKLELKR :: 0.09

From here, focus on the item given below.
Lookup: I would be grateful if you could share the reported OD450 at 0.001 nM for S009-F2.38.12 (antibody, human IgG1, kappa, V domains shown, Human-murine chimeric antibody, human IgG1/kappa constant regions) VH: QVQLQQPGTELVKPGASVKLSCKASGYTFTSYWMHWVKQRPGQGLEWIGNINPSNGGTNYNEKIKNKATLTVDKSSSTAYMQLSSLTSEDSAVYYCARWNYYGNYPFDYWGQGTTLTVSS VL: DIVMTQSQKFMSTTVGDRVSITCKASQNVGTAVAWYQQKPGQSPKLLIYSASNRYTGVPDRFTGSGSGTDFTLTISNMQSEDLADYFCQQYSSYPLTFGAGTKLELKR .
Found: 0.09

FYI, the data here is from patent US20250250357A1.
